system: BDF1 mice, P388 leukemia ip, median survival T/C; assay: NCI In Vivo Anticancer Drug Screen. Data for tumor model P388 Leukemia (intraperitoneal) in B6D2F1 (BDF1) mice; details: endpoint: median survival time; dose: 400.0 mg/kg/injection; schedule: Q01DX009 (ip); vehicle: saline with Tween-80; higher = longer survival
Inconclusive results and toxic doses are left out.
QUANTITY: T/C

INSERT INTO results (molecule, quantity, value) VALUES
  ('Cc1c(C)c([N+](=O)[O-])c(Br)c(C)c1[N+](=O)[O-]', 'T/C', '95 % of control');

Please state T/C for every molecule in the list that follows.
1. O=CN(c1ccccc1)c1ccccc1
2. C[C@]12C[C@@H](F)C(=O)C[C@@H]1CC[C@@H]1[C@@H]2CC[C@]2(C)[C@@H](O)CC[C@@H]12
3. O=C(O)CCC(=O)Nc1ccccc1C(F)(F)F
4. CN(C)[C@@H]1C(=O)C(C(=O)NCNCCCC(=O)O)=C(O)[C@@]2(O)C(=O)C3=C(O)c4c(O)cccc4[C@@](C)(O)[C@H]3C[C@@H]12
5. O=C(c1cccs1)c1cccs1
6. COc1cc([N+](=O)[O-])cc(OC)c1OC
7. CC1(C)c2ccccc2C(C)(C(Cl)(Cl)Cl)c2ccc(Cl)cc21 (stereo unspecified)
8. COC1/C=C/OC2(C)Oc3c(C)c(O)c4c(O)c(c(/C=N/NC5CCCCCCCCCCCCCC5)c(O)c4c3C2=O)NC(=O)/C(C)=C\C=C\C(C)C(O)C(C)C(O)C(C)C(OC(C)=O)C1C (stereo unspecified)

105 % of control
100 % of control
90 % of control
104 % of control
99 % of control
91 % of control
97 % of control
95 % of control
